All values here come from patent US9242977B2.

# reported inhibition at 3 µM; entries follow
Molecular target: Abl (Homo sapiens (Human), UniProt P00519)
Sequence (P00519 whole entry): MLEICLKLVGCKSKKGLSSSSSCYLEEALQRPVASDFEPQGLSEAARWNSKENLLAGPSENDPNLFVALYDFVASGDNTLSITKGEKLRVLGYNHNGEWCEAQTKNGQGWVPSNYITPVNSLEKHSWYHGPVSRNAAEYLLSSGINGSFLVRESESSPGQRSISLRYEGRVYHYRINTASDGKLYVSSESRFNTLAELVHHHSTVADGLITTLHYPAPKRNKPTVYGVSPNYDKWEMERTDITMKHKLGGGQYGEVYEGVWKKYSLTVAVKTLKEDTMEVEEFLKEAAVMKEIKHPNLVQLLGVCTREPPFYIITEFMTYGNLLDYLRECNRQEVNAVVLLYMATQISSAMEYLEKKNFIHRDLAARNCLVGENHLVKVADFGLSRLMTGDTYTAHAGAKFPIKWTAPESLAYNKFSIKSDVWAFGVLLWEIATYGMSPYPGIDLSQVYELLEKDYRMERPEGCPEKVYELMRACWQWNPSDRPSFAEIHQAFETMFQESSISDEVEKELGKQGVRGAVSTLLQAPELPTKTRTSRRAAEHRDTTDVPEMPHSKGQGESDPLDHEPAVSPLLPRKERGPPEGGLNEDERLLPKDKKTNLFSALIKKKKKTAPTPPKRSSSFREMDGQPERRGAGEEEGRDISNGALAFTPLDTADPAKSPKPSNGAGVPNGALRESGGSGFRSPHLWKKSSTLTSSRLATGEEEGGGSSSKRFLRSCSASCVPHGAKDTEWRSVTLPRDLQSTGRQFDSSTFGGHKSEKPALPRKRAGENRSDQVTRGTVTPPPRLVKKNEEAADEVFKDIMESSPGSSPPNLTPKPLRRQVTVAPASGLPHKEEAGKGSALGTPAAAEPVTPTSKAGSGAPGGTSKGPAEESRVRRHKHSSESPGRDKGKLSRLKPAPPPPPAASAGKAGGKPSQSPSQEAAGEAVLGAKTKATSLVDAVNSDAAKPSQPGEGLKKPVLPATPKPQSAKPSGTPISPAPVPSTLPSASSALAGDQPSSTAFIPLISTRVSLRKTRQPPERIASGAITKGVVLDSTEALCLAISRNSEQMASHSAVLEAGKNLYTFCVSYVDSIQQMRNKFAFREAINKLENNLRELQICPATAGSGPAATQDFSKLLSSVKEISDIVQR
Test: Enzyme inhibition activity test for kinases other than Trk (selectivity test): Abl
Format: biochemical
Details: test concentration 3 μM; read-out: Inhibition Rate (%) Abl
Reported Metric: inhibition at 3 µM (%)

Chemical Structure: CCCNc1ncc(-c2ccc(Oc3ncc(NC(=O)Nc4cc(C(F)(F)F)ccc4Cl)cn3)cc2)s1
Value Measured: 0

Chemical Structure: CCNc1ncc(-c2ccc(Oc3ncc(NC(=O)Nc4cc(C(F)(F)F)cnc4-c4ccc(C)cc4)cn3)cc2)s1
Value Measured: 25

Chemical Structure: O=C(Nc1cnc(Oc2ccc(-c3cnc(N4CCCC4=O)s3)cc2)nc1)Nc1cc(C(F)(F)F)cnc1-c1ccccc1
Value Measured: 8.9

Chemical Structure: O=C(Nc1cnc(Oc2ccc(-c3cnc(N4CCCC4=O)s3)cc2)nc1)Nc1cc(C(F)(F)F)ccc1-c1cccnc1
Value Measured: 5.6

Chemical Structure: Cc1cccc(-c2ncc(C(F)(F)F)cc2NC(=O)Nc2cnc(Oc3ccc(-c4cnc(N5CCCC5=O)s4)cc3)nc2)c1
Value Measured: 0
